- assay.details: yeast display, Sf9 membrane polyspecificity reagent, FACS + sequencing; frameworks hold sequencing errors
parameter.measured: polyreactivity (PSR sort gate)

// worked examples, polyreactivity (PSR sort gate) included
>  <sequence.code>
QVQLVESGGGLVQAGGSLRLSCAASGLTIRYNAMGWYRQAPGKERELVARISRNGGRTYYADSVKGRFTISRDNAKNTVYLQMKSLKPEDTAVNYCNVVYFVTTSPGYDYWGQGTQVTVSS

>  <polyreactivity (PSR sort gate)>
high polyreactivity

$$$$
>  <sequence.code>
QVQLVESGGGLVQAGGSLRLSCAAYVRIFGYYAMGWYRQAPGKERELVAGISARGGSTYYADSVKGRLTISRDNAKNTVYLQMNSLKPEDTAVYYCAAYYLWPGYLFRPYDYWGHGTQVTVSS

>  <polyreactivity (PSR sort gate)>
low polyreactivity

$$$$
>  <sequence.code>
QVQLVESGGGLVQAGGSLRLSCAASGSTFPYYAMGWYRQAPGKERELVAAISRGDSTNYADSVKGRFTISRDNAKNTFYLQMNSLKTEDTAVYYCAARLQYRRTSVKYYYWGQGTQVTVSS

>  <polyreactivity (PSR sort gate)>
high polyreactivity

$$$$
>  <sequence.code>
QVQLVESGGGLVQAGGSLRLSCAASGFIFTRNVMGWYRQAPGKEMELVASISKSSGSTYYADSVKGRFTISRDNAKNTVYLQMNSLNPEDTAVYYCATYAKQLSPYYYWGQGIQVTVSS

>  <polyreactivity (PSR sort gate)>
high polyreactivity

$$$$

Next sequence, polyreactivity (PSR sort gate) to be filled in.
Ask: Given the sequence QVQLVESGGGLVQAGGSLRLSCAASGLTFSDYAMGWYRQAPGKERAFVAAITRNGGSTRYADSVKGRFTISRDNAKITVYLQMHSLKPEDTAVYYCATDVGFGRKQRPHRPGYGYWGQGTQVTVSS , what is its reported polyreactivity (PSR sort gate)?
Reply: low polyreactivity

----------
- assay.details: yeast display, Sf9 membrane polyspecificity reagent, FACS + sequencing; frameworks hold sequencing errors
parameter.measured: polyreactivity (PSR sort gate)

// worked examples, polyreactivity (PSR sort gate) included
>  <sequence.code>
QVQLVESGRGLVQAGGSLRLSCAASGIILGRYAKGWYRQAPGKERELVAVITGDGSTTYADSVKGRFTISRDNAKNTVYLQMNSLKPEDTAVYYCNAAVEGSLNGYEYWGQGTQVTVSS

>  <test.result>
low polyreactivity

$$$$
>  <sequence.code>
QVQLVESGGGLVQAGGSLRLSCASSVIILVQYVMGWYIQAPGKERELVASISRTGGSTNYADSVKGRFTISRDNAKNTVYLQMNSLKPEDTAVYYCSAKKRKIAGVGGDYWGQGTQVTVSS

>  <test.result>
high polyreactivity

$$$$
>  <sequence.code>
QVQLVESGGGLVQAGGSLRLSCAASGPIFKRNAMGWYRQAPGKERELVAAISGSGGRTYYADSVKGRFTISRDNAKYTVYLQMNSLKREDTAVYYCNAGGSYYARGMDYWGQGTQVTVSS

>  <test.result>
high polyreactivity

$$$$
>  <sequence.code>
QVQLVESGGGLVQAGGSLRLSCAASGSLFYYYPMGWYRQAPGKERELVATINISDRSTYYADSVKGRFTISRDYAKNTVYLQMNSLKPEDTAVYDCAAYYYFQDYDYWGQGTQVTVSS

>  <test.result>
low polyreactivity

$$$$
>  <sequence.code>
QVQLVESGRGLVQAGGSLRLSGAASGITQDDYDMGWSRQAPGKQRELVAAITSGGSTNYAHSVKGRFTNSRDNATNTVYLQMNSLKPEDTAVYYCAADTARTRIFDYWGQGTQVTVSS

>  <test.result>
low polyreactivity

$$$$
>  <sequence.code>
QVQLVESGGGLVQAGGSLRLSCAASGSTFYSYAMGWSRQAPGKERELVARISGSGGSTYYADSVKGRFTISRDTAKNTVYLQMNSLKPEDPAVYYCAADDIYKYYQYYAFPYYRYDYWGQGTQVTVSS

>  <test.result>
low polyreactivity

$$$$

Ask: Given the sequence QVQLQESGGGLVQAGGSLRPSCEASGNISLNVYMCWYRQAPGKEREFVAGTADGATTNYADSVKGRFTISRDNAKNTVFLQMNSLKPEDTAVYDCIKDYGYVQLRFYGPGYYWGQGTQVTVSS , what is its reported polyreactivity (PSR sort gate)?
Reply: low polyreactivity

Ask: Given the sequence QVQLEETVGGLVQAGGSLRLSSAATGLTFYLYVMGWYSQAHGKERELVAAISRRGGTTYYADSVKGRVTISRDKAKNTVYLQLNCLKPDDTAVYDCAADFFARTQRTFDYWGLGTQVTVSS , what is its reported polyreactivity (PSR sort gate)?
Reply: high polyreactivity

Ask: Given the sequence QVQLVESGGGLVQAGGSLRLSCAASGRIFYYYAMGWYRQAPGKERELVAGIDSGDSTNYADSVKGRFTISRDNAKNTVYLQLNSLKPEDTAVYYCAALHYGGYFSYYPYYYWGQGTQVTVSS , what is its reported polyreactivity (PSR sort gate)?
Reply: low polyreactivity

Ask: Given the sequence QVQLVESGGGLVQAGGSLRLSCAASGRIFTGNVMGLYRQAPGKERELVAAITYRGGSTYYADSVKGRFTISRDNAKNTVYLQMNSLKPEDTAVYYCNTGWDPYGYDYWGQGTQVTVSS , what is its reported polyreactivity (PSR sort gate)?
Reply: low polyreactivity

Ask: Given the sequence QVQLVESGGGLVQAGGSLRLSCAASGSIFYVYAMGWYRQAPGKERELVADITTRDGDTYYADSVKGRFTISRDNAKNTVYLQMNSLKPVDTAVYYCAADLNAYPQRAYDYWGQGTQLTVSS , what is its reported polyreactivity (PSR sort gate)?
Reply: low polyreactivity

----------
- assay.details: yeast display, Sf9 membrane polyspecificity reagent, FACS + sequencing; frameworks hold sequencing errors
parameter.measured: polyreactivity (PSR sort gate)

// worked examples, polyreactivity (PSR sort gate) included
>  <sequence.code>
QVQLVESWVGLVQAGGSLSLSCDASGFTILGYAMGWYRQAPGKERELVASITYGGDSTYYADSVKGRFTISRDNAKNTVYLQINCLKPEDTAVYYCNARPSYWWGGRLYGYWGQGSQVTVSS

>  <polyreactivity (PSR sort gate)>
high polyreactivity

$$$$
>  <sequence.code>
QVQLVESGGGLVQAGGSLRLSCAASGSTFLGNDMGWYRQEPGKERELVASINSATSTTYADSVKGRFTISRDNAKNTVYLQMNSLKPEDTAVYYCAARYYRPLDYWGQGTQVTVSS

>  <polyreactivity (PSR sort gate)>
low polyreactivity

$$$$
>  <sequence.code>
QVQLVESGGGLVQAGGSLRLSCAASGFTFYNYAMGWYRQAPGKERELVAAITSRGGSTYYADSVKGRFTISRDNAKNTVYLQMNSLKPEDTAVYYCNAVAKLYYWRYDYWGQGTQVTVSS

>  <polyreactivity (PSR sort gate)>
low polyreactivity

$$$$
>  <sequence.code>
QVQLVESGGGLVQAGGSLRLSCAASGRTFKYYAMGWYRQAPGKERELVAAINSGGITYYADSVKGRFTISRDNAKNTVYLQMNSLKPEDTAVYYCAKVWKIGVLRYPSYGYYYWGQGTQVTVSS

>  <polyreactivity (PSR sort gate)>
high polyreactivity

$$$$
>  <sequence.code>
QLQLVESGAGRVQAGGSLRLRCAAAGSILRDNAMVWYRQAPWKEREFVADIRGSDDTTYYADSVKGRFTISRDNGKNSVYLQMNSLKPEDTAVYYSNRDDAWQEYDYWGQGTQVTVSS

>  <polyreactivity (PSR sort gate)>
low polyreactivity

$$$$
>  <sequence.code>
QVQLVESGGGLVQAGGSLRLSCAASGSTFYGYAMGWYRQAPGKERELVAAITRSGGSTYYADSVKGRFTISRDNAKNTVYLQMNSLKPEDTAVYYCAAEFRYSRVYGYNYWGQGSQVTVSS

>  <polyreactivity (PSR sort gate)>
high polyreactivity

$$$$
>  <sequence.code>
QVQLVESGGGLVQAGGTLRLSCAASGSIFANYAMGWYRQAPGKERELVASISSGDSTNYADSVKGRFTISRDNAKNTVYLQMNSLKPEDTAVYYCASTFVGGIWSGYNYWGQGTQVTVSS

>  <polyreactivity (PSR sort gate)>
low polyreactivity

$$$$
>  <sequence.code>
QVQLVESGGGLVQAGGSLRLSSAASGRTFYDYAMGWYRQAPGKERELVAAITYSGGSTFYADSVKGRFTISRDNAKNTVYLQMNSLTPEDTAVYYCAAEVLRLGGAAEYDYCGQGTQVTVSS

>  <polyreactivity (PSR sort gate)>
low polyreactivity

$$$$
>  <sequence.code>
QVQHVESVGGLVQAGGSLRLSCAASGRTFGCYTMGWYRHATGTERELVAGISSSGGSTYYADSVKGRFTISRDNAKNTVYLQMNSLKPEDTAVYYCARETYPHGLYYRPYDYWGQGTQVTVSS

>  <polyreactivity (PSR sort gate)>
low polyreactivity

$$$$
>  <sequence.code>
QVQLVESGGGLVQAGGSLRLSCAASGRTFRLYAMGWYRQAPGKERELVAAITRGGRTNYADSVKGRFTISRDNAKNTVYLQMNSLNPEDTAVYYCAARYVERHTDYYYWGQGTQVTVSS

>  <polyreactivity (PSR sort gate)>
low polyreactivity

$$$$

Next sequence, polyreactivity (PSR sort gate) to be filled in.
Ask: Given the sequence QVQLVESGGGLVQAGGSLRLSCAASGIIFTNYSMGWYRQAPGKERELVAAISKGAGRTYYADSVKGRFTISRDNAKNTVYLQMNSLKPEDTAVYYCNKAKRSGGYPGVFSYDYWGQGTQVTVSS , what is its reported polyreactivity (PSR sort gate)?
Reply: high polyreactivity
